# Test system: Left cardiac atrium
# experimentDescription: Negative inotropic activity in guinea pig left atrium assessed as decrease in developed tension at 10^-6 M relative to control
# Assay type: ADME, tissue-based, Cavia porcellus
# Set-up: scale not given: the % may be the effect or the level left
# assayContext: 1 µM
Reported Activity values for the following compounds.
measuredMetric: Activity (%)

>>> quantitativeresult("CCOC(=O)C1=C(C)NC(C)=C(C(=O)OCC)C1c1c(-c2c(F)cccc2F)nc2sccn12")
33
>>> quantitativeresult("CCOC(=O)C1=C(C)NC(C)=C(C(=O)OCC)C1c1c(-c2cc(OC)cc(OC)c2)nc2sc(Br)cn12")
93
>>> quantitativeresult("CCOC(=O)C1=C(C)NC(C)=C(C(=O)OCC)C1c1c(-c2ccc(F)cc2)nc2sc(Cl)cn12")
62
>>> quantitativeresult("CCOC(=O)C1=C(C)NC(C)=C(C(=O)OCC)C1c1c(-c2ccc(F)cc2)nc2sc(C)cn12")
37

----------
# testedSystem: Voltage-gated L-type calcium channel (Rattus norvegicus, UniProt P22002+Q02485+P27732)
# experimentDescription: Inhibition of voltage-dependent L-type calcium channel in Wistar rat brain slices assessed as protection against oxygen glucose deprivation/reperfusion-induced injury by measuring recovery of LDH release at 20 uM administered at onset of reperfusion period measured after 90 mins by spectrophotometric assay relative to control
# Design: scale not given: the % may be the effect or the level left
# assayContext: 1.5 h
With a cut-off of 80%, any Activity strictly below it is called true (1); any Activity meeting it or above is called false (0).

>>> label("COC(=O)C1=C(C)NC(C)=C(C(=O)OC)C1c1c(-c2ccc(OC(F)(F)F)cc2)nc2sccn12")
"false (0)"
>>> label("CCOC(=O)C1=C(C)NC(C)=C(C(=O)OCC)C1c1c(-c2cc(OC)cc(OC)c2)nc2sc(Br)cn12")
"true (1)"
>>> label("CCOC(=O)C1=C(C)NC(C)=C(C(=O)OCC)C1c1c(-c2ccc(OC)c(OC)c2)nc2sc(Br)cn12")
"true (1)"
>>> label("CCOC(=O)C1=C(C)NC(C)=C(C(=O)OCC)C1c1c(-c2ccc(F)c(F)c2)nc2sccn12")
"true (1)"
>>> label("CCOC(=O)C1=C(C)NC(C)=C(C(=O)OCC)C1c1c(-c2ccc(F)cc2)nc2sc(Cl)cn12")
"true (1)"
>>> label("COC(=O)C1=C(C)NC(C)=C(C(=O)OC)C1c1c(-c2ccccc2)nc2scc(C)n12")
"false (0)"
>>> label("COC(=O)C1=C(C)NC(C)=C(C(=O)OC)C1c1c(C(F)(F)F)nc2sc(C)cn12")
"false (0)"
>>> label("CCOC(=O)C1=C(C)NC(C)=C(C(=O)OCC)C1c1c(-c2ccc(F)cc2)nc2sccn12")
"true (1)"
>>> label("CCOC(=O)C1=C(C)NC(C)=C(C(=O)OCC)C1c1c(-c2ccc(Cl)c([N+](=O)[O-])c2)nc2sc(C)cn12")
"true (1)"

----------
Each entry below carries its recorded pEC50.
# System: Left cardiac atrium
# experimentDescription: Negative inotropic activity in guinea pig left atrium assessed as decrease in developed tension at 0.001 to 100 uM relative to control
# Assay type: ADME, tissue-based
# assayContext: Cavia porcellus
pEC50: −log10 of the molar value.
measuredMetric: pEC50

>>> quantitativeresult("CCOC(=O)C1=C(C)NC(C)=C(C(=O)OCC)C1c1c(-c2cc([N+](=O)[O-])c(Cl)cc2Cl)nc2sc(CC)cn12")
7.48
>>> quantitativeresult("CCOC(=O)C1=C(C)NC(C)=C(C(=O)OCC)C1c1c(-c2ccc(Cl)cc2)nc2sc(Cl)cn12")
5.46
>>> quantitativeresult("CCOC(=O)C1=C(C)NC(C)=C(C(=O)OCC)C1c1c(-c2ccc(Cl)c([N+](=O)[O-])c2)nc2sc(C)cn12")
6.72
